I'd be grateful if you could share measured GI50 for these entries.
System: Ba/F3 cells expressing EGFR Del19/C797S (EGFR DC)
assayProcedure: Proliferation inhibitory activity, Ba/F3 cells expressing EGFR Del19/C797S (CellTiter-Glo)
Assay type: cell-based
conditionDetails: Mus musculus, BaF3, 72 hours of compound treatment

### Prompt Item under review: "CN(C)CCN(C)c1ccc(Nc2cc(N3OCC[C@@H]3c3cc(F)cc(F)c3)ncn2)cc1" . Reported GI50?
### Response 50 to 500 nM

### Prompt And what about the compound "COc1cc(N2CCC(N3CCC(N(C)C)CC3)CC2)ccc1Nc1cc(N2OCC[C@@H]2c2ccccc2)ncn1" ?
### Response < 50 nM

### Prompt Would you mind doing "Fc1cccc([C@H]2CCON2c2cc(Nc3ccc([C@@H]4CCON4)cc3)ncn2)c1F" as well?
### Response 50 to 500 nM

### Prompt Now give it for "CN1CCN(c2c(-c3cnn(C)c3)cc(Nc3cc(N4OCC[C@@H]4c4ccccc4)ncn3)c3c2CCO3)CC1" too.
### Response < 50 nM

### Prompt Same thing, different compound: "Cc1cc(N2CCC(N3CCN(C)CC3)CC2)ccc1Nc1cc(N2OCC[C@@H]2c2ccccc2)ncn1"
### Response < 50 nM

### Prompt Item: "CN(C)[C@@H]1CCN(c2ccc(Nc3cc(N4OCC[C@@H]4c4ccccc4)ncn3)cc2)C1"
### Response < 50 nM

### Prompt Try this compound too: "COc1cc(N2CCC(N3CCN(C)CC3)CC2)ccc1Nc1cc(N2OCC[C@@H]2c2ccccc2)ncn1"
### Response < 50 nM

### Prompt Next: "CN1CCN(C2CCN(c3ccc(Nc4cc(N5OCC[C@@H]5c5cc(F)cc(F)c5)ncn4)cc3C(F)(F)F)CC2)CC1"
### Response 50 to 500 nM

### Prompt Next: "COc1cc(Nc2cc(N3OCC[C@@H]3c3ccccc3)ncn2)ccc1N1CCN(C2CCN(C)CC2)CC1"
### Response < 50 nM

### Prompt And what about the compound "COc1cc(N2CCC(N3C[C@H]4C[C@@H]3CO4)CC2)ccc1Nc1cc(N2OCC[C@@H]2c2ccccc2)ncn1" ?
### Response < 50 nM

### Prompt Moving on to the next compound: "C=Cc1cc(Nc2cc(N3OCC[C@@H]3c3cccc(F)c3F)ncn2)c(OC)cc1N1CCN(C)CC1"
### Response < 50 nM

### Prompt Same for "COc1cc(Nc2cc(N3OCC[C@@H]3c3ccc(F)cc3F)ncn2)ccc1N1CCC(N2CCN(C)CC2)CC1"
### Response < 50 nM

### Prompt Now this one: "CN1CCC(c2ccc(Nc3cc(N4OCC[C@@H]4c4cc(F)cc(F)c4)ncn3)c3c2CCO3)CC1"
### Response < 50 nM

### Prompt Also, "CN1CCN(Cc2cc(Nc3cc(N4OCC[C@@H]4c4cc(F)cc(F)c4)ncn3)cc(C(C)(C)C#N)c2)CC1" please.
### Response 50 to 500 nM

### Prompt Input "COc1cc(N2CCC(N3CCN(C)CC3)CC2)c(-c2cnn(C)c2)cc1Nc1cc(N2OCC[C@@H]2c2cc(F)cc(F)c2)ncn1"
### Response < 50 nM

---

testSystem: EGFR (d746-750/C797A) (Homo sapiens, UniProt P00533, C797A/DEL746-750)
Sequence (P00533 with tags, fused parts or gaps DEL746-750/C797A limits assumed): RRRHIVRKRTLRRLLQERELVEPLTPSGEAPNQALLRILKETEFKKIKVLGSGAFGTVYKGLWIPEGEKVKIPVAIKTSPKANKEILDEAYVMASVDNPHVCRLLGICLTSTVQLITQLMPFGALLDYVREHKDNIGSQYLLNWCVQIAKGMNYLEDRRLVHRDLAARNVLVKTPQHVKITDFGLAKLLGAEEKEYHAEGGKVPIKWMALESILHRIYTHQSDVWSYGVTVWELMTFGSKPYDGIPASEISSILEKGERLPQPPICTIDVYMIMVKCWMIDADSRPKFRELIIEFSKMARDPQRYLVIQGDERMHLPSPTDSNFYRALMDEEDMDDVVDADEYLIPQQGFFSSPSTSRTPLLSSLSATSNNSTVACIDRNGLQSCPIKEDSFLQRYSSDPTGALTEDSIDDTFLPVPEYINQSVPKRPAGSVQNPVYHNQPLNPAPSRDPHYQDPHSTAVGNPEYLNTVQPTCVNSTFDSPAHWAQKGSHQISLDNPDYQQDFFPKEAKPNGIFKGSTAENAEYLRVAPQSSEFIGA
assayProcedure: EGFR-family mutant enzyme activity (Reaction Biology)
assayMetric: pIC50
Note on pIC50: it is the negative log10 of concentration, concentration in mol/L.

### Prompt Form field: pIC50 recorded for "COc1cc(N2CCC(N3CCN(C)CC3)CC2)ccc1Nc1cc(N2OCC[C@@H]2c2ccc(F)cc2F)ncn1" with EGFR (d746-750/C797A) (Homo sapiens, UniProt P00533, C797A/DEL746-750) (enter value)
### Response 8.46

---

testSystem: EGFR (G719C) (Homo sapiens, UniProt P00533, G719C)
Sequence (P00533 25-1210 G719C): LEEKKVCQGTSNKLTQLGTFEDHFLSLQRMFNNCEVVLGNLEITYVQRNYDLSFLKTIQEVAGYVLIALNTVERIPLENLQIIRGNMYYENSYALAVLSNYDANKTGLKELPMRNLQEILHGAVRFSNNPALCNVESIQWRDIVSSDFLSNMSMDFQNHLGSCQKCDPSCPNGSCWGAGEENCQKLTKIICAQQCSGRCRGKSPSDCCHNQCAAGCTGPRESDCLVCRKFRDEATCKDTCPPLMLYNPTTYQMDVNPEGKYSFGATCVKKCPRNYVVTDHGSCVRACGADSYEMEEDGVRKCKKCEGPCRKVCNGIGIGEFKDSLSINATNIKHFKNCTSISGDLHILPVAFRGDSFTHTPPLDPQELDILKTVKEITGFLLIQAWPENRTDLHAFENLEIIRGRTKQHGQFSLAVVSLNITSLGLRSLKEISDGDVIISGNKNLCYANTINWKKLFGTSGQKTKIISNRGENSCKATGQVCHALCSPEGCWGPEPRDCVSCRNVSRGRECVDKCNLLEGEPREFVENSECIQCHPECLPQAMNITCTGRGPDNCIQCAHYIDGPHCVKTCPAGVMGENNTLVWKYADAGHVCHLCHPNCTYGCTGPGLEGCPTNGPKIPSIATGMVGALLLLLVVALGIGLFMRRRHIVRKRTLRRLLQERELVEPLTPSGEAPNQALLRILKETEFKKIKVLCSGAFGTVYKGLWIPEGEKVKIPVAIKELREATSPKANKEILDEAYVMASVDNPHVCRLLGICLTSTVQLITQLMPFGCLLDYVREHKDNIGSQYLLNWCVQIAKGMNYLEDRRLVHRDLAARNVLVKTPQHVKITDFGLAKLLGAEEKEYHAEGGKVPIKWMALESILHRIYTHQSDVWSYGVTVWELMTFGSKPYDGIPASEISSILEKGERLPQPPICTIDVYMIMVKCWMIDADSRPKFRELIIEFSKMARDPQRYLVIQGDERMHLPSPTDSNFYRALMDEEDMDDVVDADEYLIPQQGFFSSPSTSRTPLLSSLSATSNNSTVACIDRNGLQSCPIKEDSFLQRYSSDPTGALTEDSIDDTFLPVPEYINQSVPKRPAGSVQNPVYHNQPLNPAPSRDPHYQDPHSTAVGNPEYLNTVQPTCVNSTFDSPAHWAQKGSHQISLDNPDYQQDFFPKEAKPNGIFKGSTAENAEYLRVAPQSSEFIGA
assayProcedure: EGFR-family mutant enzyme activity (Reaction Biology)
assayMetric: IC50 (pM)
Give the value, in units of pM, as a plain number.

### Prompt Fill in: IC50 of COc1cc(N2CCC(N3CCN(C)CC3)CC2)ccc1Nc1cc(N2OCC[C@@H]2c2ccc(F)cc2F)ncn1 [Example 34] is ___
### Response 500

---

Kindly state GI50 for each of the entries shown.
System: Ba/F3 cells expressing EGFR L858R/C797S (EGFR LC)
assayProcedure: Proliferation inhibitory activity, Ba/F3 cells expressing EGFR L858R/C797S (CellTiter-Glo)
Type: cell-based
conditionDetails: Mus musculus, BaF3, 72 hours of compound treatment

### Prompt # query: GI50 of entry "CN(C)C1CCN(C2CCN(c3ccc(Nc4cc(N5OCC[C@@H]5c5ccccc5)ncn4)cc3)CC2)CC1"
### Response < 0.05 µM

### Prompt Repeat with "CS(=O)(=O)c1cc(Nc2cc(N3OCC[C@@H]3c3cc(F)cc(F)c3)ncn2)cc(N2CCC(N3CCOCC3)CC2)c1"
### Response 0.05 to 0.5 µM

### Prompt Repeat with "COc1cc(N2CCC(N3CCN(C)CC3)CC2)ccc1Nc1cc(N2OCC[C@@H]2c2ccc(Cl)c(F)c2)ncn1"
### Response < 0.05 µM

---

testSystem: ERBB2/HER2 (Homo sapiens)
Sequence (P04626 23-1255): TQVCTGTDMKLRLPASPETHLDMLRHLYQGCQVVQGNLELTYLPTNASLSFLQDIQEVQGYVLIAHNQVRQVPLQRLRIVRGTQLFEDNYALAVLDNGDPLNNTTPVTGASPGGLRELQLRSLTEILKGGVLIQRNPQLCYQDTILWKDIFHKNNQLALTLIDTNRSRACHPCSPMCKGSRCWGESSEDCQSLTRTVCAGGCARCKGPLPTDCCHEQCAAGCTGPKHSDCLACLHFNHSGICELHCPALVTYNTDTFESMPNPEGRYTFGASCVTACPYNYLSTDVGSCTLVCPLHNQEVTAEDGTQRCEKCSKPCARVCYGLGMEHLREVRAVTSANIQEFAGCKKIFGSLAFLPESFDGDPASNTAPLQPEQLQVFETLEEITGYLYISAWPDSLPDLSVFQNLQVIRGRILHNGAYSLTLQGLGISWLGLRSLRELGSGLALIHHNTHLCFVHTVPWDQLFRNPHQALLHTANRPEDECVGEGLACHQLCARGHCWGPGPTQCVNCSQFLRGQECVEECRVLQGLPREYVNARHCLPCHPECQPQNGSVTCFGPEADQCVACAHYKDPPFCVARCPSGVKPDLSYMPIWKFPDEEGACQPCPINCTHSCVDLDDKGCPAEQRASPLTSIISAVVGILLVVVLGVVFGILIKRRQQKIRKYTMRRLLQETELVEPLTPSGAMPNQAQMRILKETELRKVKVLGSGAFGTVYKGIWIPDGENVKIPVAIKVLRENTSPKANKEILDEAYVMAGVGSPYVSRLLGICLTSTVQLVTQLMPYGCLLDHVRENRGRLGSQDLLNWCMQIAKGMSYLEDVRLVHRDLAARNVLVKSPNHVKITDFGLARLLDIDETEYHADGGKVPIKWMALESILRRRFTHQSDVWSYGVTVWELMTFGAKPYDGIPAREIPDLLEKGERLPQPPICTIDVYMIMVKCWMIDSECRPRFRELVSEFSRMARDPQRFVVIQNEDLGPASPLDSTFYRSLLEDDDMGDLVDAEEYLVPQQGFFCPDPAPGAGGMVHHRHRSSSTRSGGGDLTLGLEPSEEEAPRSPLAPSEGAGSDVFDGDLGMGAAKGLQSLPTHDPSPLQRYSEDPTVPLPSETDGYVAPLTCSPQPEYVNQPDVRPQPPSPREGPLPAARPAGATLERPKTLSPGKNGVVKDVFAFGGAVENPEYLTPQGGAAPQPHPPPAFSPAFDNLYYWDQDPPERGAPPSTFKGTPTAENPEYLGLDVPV
assayProcedure: EGFR-family mutant enzyme activity (Reaction Biology)
assayMetric: IC50

### Prompt // lookup IC50 | system=ERBB2/HER2 (Homo sapiens) | key= "COc1cc(N2CCC(N3CCN(C)CC3)CC2)ccc1Nc1cc(N2OCC[C@@H]2c2ccc(F)cc2F)ncn1"
### Response 5.3 nM

---

testSystem: EGFR (G719D) (Homo sapiens, UniProt P00533, G719D)
Sequence (P00533 25-1210 G719D): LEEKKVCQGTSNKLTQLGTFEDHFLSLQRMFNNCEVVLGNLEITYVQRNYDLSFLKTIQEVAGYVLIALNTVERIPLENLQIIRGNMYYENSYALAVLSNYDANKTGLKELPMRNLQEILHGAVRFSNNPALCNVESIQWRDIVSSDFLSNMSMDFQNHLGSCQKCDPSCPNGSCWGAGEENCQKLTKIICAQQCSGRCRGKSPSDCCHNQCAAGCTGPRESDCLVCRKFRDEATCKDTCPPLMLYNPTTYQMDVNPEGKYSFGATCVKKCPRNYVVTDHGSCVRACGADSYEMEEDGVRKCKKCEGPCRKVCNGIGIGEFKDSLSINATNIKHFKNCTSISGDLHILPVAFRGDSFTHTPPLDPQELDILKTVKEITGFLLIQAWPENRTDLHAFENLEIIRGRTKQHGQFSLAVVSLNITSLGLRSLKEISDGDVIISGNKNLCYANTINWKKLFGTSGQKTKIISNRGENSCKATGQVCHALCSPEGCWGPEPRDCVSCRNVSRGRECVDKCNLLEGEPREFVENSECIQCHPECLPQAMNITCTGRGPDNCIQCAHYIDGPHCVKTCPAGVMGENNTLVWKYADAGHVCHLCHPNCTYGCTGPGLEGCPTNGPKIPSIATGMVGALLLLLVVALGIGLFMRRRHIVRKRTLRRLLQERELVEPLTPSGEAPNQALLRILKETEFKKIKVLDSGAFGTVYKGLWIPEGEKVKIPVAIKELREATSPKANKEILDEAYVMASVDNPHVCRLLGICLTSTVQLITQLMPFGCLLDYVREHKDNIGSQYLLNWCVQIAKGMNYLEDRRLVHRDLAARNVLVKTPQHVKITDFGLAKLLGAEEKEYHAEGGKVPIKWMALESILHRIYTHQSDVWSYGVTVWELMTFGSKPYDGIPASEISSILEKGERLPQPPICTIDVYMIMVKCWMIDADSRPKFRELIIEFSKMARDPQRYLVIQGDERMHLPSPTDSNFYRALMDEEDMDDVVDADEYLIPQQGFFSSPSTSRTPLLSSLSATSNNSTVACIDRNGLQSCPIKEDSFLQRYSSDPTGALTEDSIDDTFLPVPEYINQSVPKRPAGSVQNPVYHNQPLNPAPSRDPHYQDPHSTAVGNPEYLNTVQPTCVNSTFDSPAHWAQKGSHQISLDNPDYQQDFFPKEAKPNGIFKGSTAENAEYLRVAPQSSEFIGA
assayProcedure: EGFR-family mutant enzyme activity (Reaction Biology)
pIC50: −log10 of the molar value.
assayMetric: pIC50

### Prompt Hello, I am looking for reported pIC50 with EGFR (G719D) (Homo sapiens, UniProt P00533, G719D) for COc1cc(N2CCC(N3CCN(C)CC3)CC2)ccc1Nc1cc(N2OCC[C@@H]2c2ccc(F)cc2F)ncn1 [Example 34] . Could you help?
### Response > 9.30

---

I'd be grateful if you could share measured GI50 for these entries.
Test system: Ba/F3 cells expressing EGFR Del19/C797S (EGFR DC)
assayProcedure: Proliferation inhibitory activity, Ba/F3 cells expressing EGFR Del19/C797S (CellTiter-Glo)
Assay type: cell-based
conditionDetails: Mus musculus, BaF3, 72 hours of compound treatment

### Prompt What value of GI50 has been reported for the following molecule? C[C@@H]1[C@@H](CS(C)(=O)=O)CN1c1cc(Nc2cc(N3OCC[C@@H]3c3cccc(F)c3F)ncn2)cc(-c2cnn(C)c2)c1N1CCOCC1 [Example 203]
### Response < 50 nM

### Prompt Now give it for CC(C)[C@H]1CCON1c1cc(Nc2ccc(N3CCN(C)CC3)cc2)ncn1 [Example 235] too.
### Response < 50 nM

### Prompt Similarly, CCc1cc(Nc2cc(N3OCC[C@@H]3c3ccc(F)cc3F)ncn2)c(OC)cc1N1CCC(N2CCN(C)CC2)CC1 [Example 93] ?
### Response < 50 nM

### Prompt Another molecule: CCC(=O)Nc1cc(Nc2cc(N3OCC[C@@H]3c3cccs3)ncn2)c(OC)cc1N1CCC(N2CCN(C3CC3)CC2)CC1 [Example 163]
### Response < 50 nM

### Prompt Next record, please: COc1cc(N2CCN(C3CCN(C)CC3)CC2)ccc1Nc1cc(N2OCC[C@@H]2c2ccccc2)ncn1 [Example 101]
### Response < 50 nM

### Prompt Then what about the molecule COc1cc(N2CCC(N3CCN(C)CC3)CC2)ccc1Nc1cc(N2OCC[C@@H]2c2ccc(F)cc2F)ncn1 [Example 34] ?
### Response < 50 nM

### Prompt For O=C1CCCN1c1ccc(Nc2cc(N3OCC[C@@H]3c3ccccc3)ncn2)cc1 [Example 75] then?
### Response < 50 nM

### Prompt Further, for COc1cc(N2CCC(N3CCN(C)CC3)CC2)ccc1Nc1cc(N2Oc3ccccc3C2c2ccccc2)ncn1 (stereo not drawn) [Example 230] ?
### Response 50 to 500 nM

### Prompt Let us now turn to COc1cc(N2CCC(N3CCN(C4COC4)CC3)CC2)ccc1Nc1cc(N2OCC[C@@H]2c2cccc(F)c2F)ncn1 [Example 209]
### Response < 50 nM

### Prompt Do the same for COc1cc(N2CCC(N3CCN(C)CC3)CC2)ccc1Nc1cc(N2OCC[C@@H]2c2ccccc2)nc(N)n1 [Example 111] please
### Response 50 to 500 nM

### Prompt CN1CCN(C(=O)c2ccc(Nc3cc(N4OCC[C@@H]4c4ccccc4)ncn3)cc2)CC1 [Example 72] ?
### Response 50 to 500 nM

### Prompt Please do the same for Cn1nccc1-c1ccc(Nc2cc(N3OCC[C@@H]3c3ccccc3)ncn2)c2c1OCCO2 [Example 80] as well.
### Response 50 to 500 nM

### Prompt // next record CN1CCN(c2cc(Nc3cc(N4OCC[C@@H]4c4cc(F)cc(F)c4)ncn3)cc(S(C)(=O)=O)c2)CC1 [Example 13]
### Response 50 to 500 nM

### Prompt Item: CN1Cc2cc(Nc3cc(N4OCC[C@@H]4c4ccccc4)ncn3)ccc2C1=O [Example 76]
### Response < 50 nM

### Prompt Try this molecule next: COc1cc(Nc2cc(N3OCC[C@@H]3c3ccccc3)ncn2)ccc1N1CCC(N2CCN(CCO)CC2)CC1 [Example 121]
### Response < 50 nM
